target: T1, Recombinant Human DLL4 (delta-like protein 4) (human, UniProt Q9NR61 27-524); test: ELISA on coated DLL4, Fab at 50 nM (2-fold serial dilution)
T1 construct: also called rHuman DLL4; Delta-like 4
Documented ELISA signal across a set of binders

BINDER	ELISA signal
Fab VH5-51_IGHD5-18*01>3_IGHJ4*01 G100K/G104T T58A & V3-4_IGLJ1*01 (Fab, V domains shown, Fab; also called H:KT T58A & L:parent) VH: EVQLVQSGAEVKKPGESLKISCKGSGYSFTSYWIGWVRQMPGKGLEWMGIIYPGDSDARYSPSFQGQVTISADKSISTAYLQWSSLKASDTAMYYCARRKYSYTYDYFDYWGQGTLVTVSS VL: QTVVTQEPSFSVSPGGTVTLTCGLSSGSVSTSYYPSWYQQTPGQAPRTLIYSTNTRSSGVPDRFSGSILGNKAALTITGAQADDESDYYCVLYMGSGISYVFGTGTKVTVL	0.209
Fab VH5-51_IGHD5-18*01>3_IGHJ4*01 G100K/G104T G35V & V3-4_IGLJ1*01 (Fab, V domains shown, Fab; also called H:KT G35V & L:parent) VH: EVQLVQSGAEVKKPGESLKISCKGSGYSFTSYWIVWVRQMPGKGLEWMGIIYPGDSDTRYSPSFQGQVTISADKSISTAYLQWSSLKASDTAMYYCARRKYSYTYDYFDYWGQGTLVTVSS VL: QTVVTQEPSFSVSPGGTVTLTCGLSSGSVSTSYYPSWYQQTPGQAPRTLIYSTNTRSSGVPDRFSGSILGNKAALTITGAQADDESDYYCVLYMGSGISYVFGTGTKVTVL	0.232
Fab VH5-51_IGHD5-18*01>3_IGHJ4*01 G100K/G104T (KT) & V3-4_IGLJ1*01 S52G (Fab, V domains shown, Fab; also called H:KT & L:S52G) VH: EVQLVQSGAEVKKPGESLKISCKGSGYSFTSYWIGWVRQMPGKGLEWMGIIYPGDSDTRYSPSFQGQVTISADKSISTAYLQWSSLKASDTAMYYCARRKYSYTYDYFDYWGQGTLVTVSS VL: QTVVTQEPSFSVSPGGTVTLTCGLSSGSVSTSYYPSWYQQTPGQAPRTLIYGTNTRSSGVPDRFSGSILGNKAALTITGAQADDESDYYCVLYMGSGISYVFGTGTKVTVL	0.194
